- test-system: GluK3 (Rattus norvegicus, UniProt P42264)
- Construct: made in house; host or cells: Sf9 insect cells (membranes)
- Sequence (P42264 32-919): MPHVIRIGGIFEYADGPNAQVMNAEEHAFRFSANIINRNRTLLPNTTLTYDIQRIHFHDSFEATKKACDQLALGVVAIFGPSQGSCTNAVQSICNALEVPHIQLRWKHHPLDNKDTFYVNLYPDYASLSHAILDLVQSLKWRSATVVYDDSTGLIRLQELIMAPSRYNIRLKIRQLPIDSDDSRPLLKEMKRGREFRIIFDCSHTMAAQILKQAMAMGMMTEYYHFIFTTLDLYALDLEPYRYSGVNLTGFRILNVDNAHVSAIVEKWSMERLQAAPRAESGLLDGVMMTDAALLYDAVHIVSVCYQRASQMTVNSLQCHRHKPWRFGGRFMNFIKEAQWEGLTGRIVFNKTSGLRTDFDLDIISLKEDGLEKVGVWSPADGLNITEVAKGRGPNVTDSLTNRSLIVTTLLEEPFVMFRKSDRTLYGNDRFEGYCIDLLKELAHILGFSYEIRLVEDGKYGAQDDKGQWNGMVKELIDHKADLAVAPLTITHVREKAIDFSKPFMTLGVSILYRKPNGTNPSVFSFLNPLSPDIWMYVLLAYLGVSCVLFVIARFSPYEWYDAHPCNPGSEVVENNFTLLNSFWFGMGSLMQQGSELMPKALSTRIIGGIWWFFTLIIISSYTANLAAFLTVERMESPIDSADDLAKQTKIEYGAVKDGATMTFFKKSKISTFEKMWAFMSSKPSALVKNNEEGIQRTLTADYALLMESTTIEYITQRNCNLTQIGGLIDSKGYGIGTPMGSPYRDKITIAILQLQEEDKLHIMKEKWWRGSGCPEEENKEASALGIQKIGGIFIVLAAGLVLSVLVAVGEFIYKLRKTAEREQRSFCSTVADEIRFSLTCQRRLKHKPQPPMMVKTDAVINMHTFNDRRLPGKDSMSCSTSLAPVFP
- assay-name: Radioligand binding at recombinant homomeric GluK3 in Sf9 membranes
- experimental-parameters: recombinant rat homomeric receptor, [3H]-kainic acid, mean ± SEM
Measured Ki accompanies every entry in the list below.
Please reply with the bare figure in µM and do not write the unit itself.

Example compounds with recorded Ki:
>  <molecule-smiles>
O=C(Nn1c(=O)c(=O)[nH]c2cc(C#Cc3cncnc3)ccc21)c1ccccc1

>  <endpoint-name>
Ki

>  <observed>
0.28

$$$$
>  <molecule-smiles>
CCc1ccc(C#Cc2ccc3c(c2)[nH]c(=O)c(=O)n3NC(=O)c2ccccc2)cc1

>  <endpoint-name>
Ki

>  <observed>
20

$$$$
>  <molecule-smiles>
Nc1ccccc1C#Cc1ccc2c(c1)[nH]c(=O)c(=O)n2NC(=O)c1ccccc1

>  <endpoint-name>
Ki

>  <observed>
1

$$$$

We now examine a further compound.
For the compound "CCCc1ccc(C#Cc2ccc3c(c2)[nH]c(=O)c(=O)n3NC(=O)c2ccccc2)cc1" , the measured Ki on GluK3 (Rattus norvegicus, UniProt P42264) was 50

Reference for the values: paper PMC9369419
